# measured on: falcipain-3 (Plasmodium falciparum)
# Construct: made in house; host or cells: E. coli
# Sequence (Q8IIL0 243-492): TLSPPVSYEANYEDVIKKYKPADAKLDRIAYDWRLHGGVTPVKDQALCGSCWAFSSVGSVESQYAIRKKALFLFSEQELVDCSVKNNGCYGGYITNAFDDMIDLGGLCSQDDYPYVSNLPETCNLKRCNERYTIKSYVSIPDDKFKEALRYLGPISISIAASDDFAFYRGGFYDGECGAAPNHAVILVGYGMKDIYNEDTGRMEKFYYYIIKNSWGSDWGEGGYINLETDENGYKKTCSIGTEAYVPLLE
# test name: Inhibition of recombinant falcipain-3, fluorometric microplate assay (Cbz-Leu-Arg-AMC)
# Type: biochemical
# condition: recombinant falcipain-3; ni = no inhibition
# Description: Recombinant falcipain-2 and falcipain-3 were produced as previously described. Inhibitory activities against recombinant falcipain-2 and falcipain-3 were evaluated in fluorometric microplate assays using the substrates Cbz-Phe-Arg-AMC and Cbz-Leu-Arg-AMC (AMC, 7-amino-4-methyl-coumarin). […] IC50 values for inhibition of falcipain-2 and falcipain-3 were determined as described previously using the fluorogenic substrates Cbz-Phe-Arg-AMC and Cbz-Leu-Arg-AMC, respectively (AMC, 7-amino-4 methylcoumarin). […]

molecule: C=C(CC)C(=O)c1ccc(OCC(=O)NCC(=O)N[C@@H](C)C(N)=O)c(Cl)c1Cl [Compound 15]
FP-3 IC50: ni
//
molecule: C=C(CC)C(=O)c1ccc(OCC(=O)NC(CCC(=O)O)C(=O)O)c(Cl)c1Cl (centres unmarked) [Compound 22]
FP-3 IC50: ni
//
molecule: C=C(CC)C(=O)c1ccc(OCC(=O)O)c(Cl)c1Cl [Compound 8, etacrynic acid]
FP-3 IC50: ni
//
molecule: C=C(CC)C(=O)c1ccc(OCC(=O)NC(C)(C)C(N)=O)c(Cl)c1Cl [Compound 14]
FP-3 IC50: ni
//
molecule: CCCC(=O)c1ccc(OCC(=O)NC(C)(C)C)c(Cl)c1Cl [Compound 26]
FP-3 IC50: ni
//
molecule: C=C(CC)C(=O)c1ccc(OCC(=O)NCC(=O)N[C@@H](Cc2ccccc2)C(N)=O)c(Cl)c1Cl [Compound 16]
FP-3 IC50: ni
//
molecule: CCCCNC(=O)COc1ccc(C(=O)CCC)c(Cl)c1Cl [Compound 27]
FP-3 IC50: ni
//
molecule: CCC(C)C(=O)c1ccc(OCC(=O)O)c(Cl)c1Cl (centres unmarked) [Compound 25]
FP-3 IC50: ni
